Reported IC50 against Aldo-keto reductase family 1 member C3 (Homo sapiens, UniProt P42330), gathered from multiple publications, appears below.

# item_smiles, IC50
rows = [
    ("N#C/C(=C\\c1ccccc1Cl)c1nn(-c2ccccc2)c(N)c1C#N", "> 50 µM"),
    ("O=C(CSc1nc2ccccc2s1)NC1CCCC1", "≥ 50 µM"),
    ("COc1ccc(-n2ncc(C(=O)N3CCN(C)CC3)c2C)cc1", "> 75 µM"),
]

Shifting focus to the compound that follows.
// query Given N#C/C(=C\c1c(Cl)cccc1Cl)c1nn(CCO)c(N)c1C#N , state its recorded IC50.
// result > 50 µM
